# Measured Target: T1, human CD3E&G complex (Sino Biological Inc., CT041-H0305H) (human, UniProt P07766 23-126; P09693 23-116)
# T1 construct: bought heterodimer; also called human CD3E&G antigen
# T1 sequence (P07766 23-126, chain 1 of 2): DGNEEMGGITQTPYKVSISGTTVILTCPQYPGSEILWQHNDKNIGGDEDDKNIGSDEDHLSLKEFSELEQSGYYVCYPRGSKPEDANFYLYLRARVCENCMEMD
# T1 sequence (P09693 23-116, chain 2 of 2): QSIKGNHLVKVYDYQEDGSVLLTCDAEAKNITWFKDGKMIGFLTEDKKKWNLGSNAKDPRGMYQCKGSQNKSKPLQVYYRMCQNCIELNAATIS
# Assay Notes: BLI, antibody on sensor
Endpoint Label: kon (M⁻¹ s⁻¹)
Answers are plain numbers, in M⁻¹ s⁻¹.

INSERT INTO results (binder, reported_measurement) VALUES
  ('hzsp34.110 (antibody, human IgG1, lambda, L234A L235A, V domains shown, CDR mutant of hzsp34.24; IgG1 L234A L235A, lambda) VH: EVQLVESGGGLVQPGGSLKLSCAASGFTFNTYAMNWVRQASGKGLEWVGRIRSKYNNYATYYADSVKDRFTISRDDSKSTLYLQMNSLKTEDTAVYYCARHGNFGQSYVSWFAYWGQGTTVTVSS VL: QAVVTQEPSLTVSPGGTVTLTCRSSTGAVTTSNYANWVQQKPGQAPRGLIGGTNKRAPGVPARFSGSLLGDKAALTLLGAQPEDEAEYYCALWYSGLWVFGQGTKLTVLG', 222000),
  ('hzsp34.88 (antibody, human IgG1, lambda, L234A L235A, V domains shown, CDR mutant of hzsp34.24; IgG1 L234A L235A, lambda) VH: EVQLVESGGGLVQPGGSLKLSCAASGFTFNTYAMNWVRQASGKGLEWVGRIRSKYNNYATYYADSVKDRFTISRDDSKSTLYLQMNSLKTEDTAVYYCARHGGFGQSYVSWFAYWGQGTTVTVSS VL: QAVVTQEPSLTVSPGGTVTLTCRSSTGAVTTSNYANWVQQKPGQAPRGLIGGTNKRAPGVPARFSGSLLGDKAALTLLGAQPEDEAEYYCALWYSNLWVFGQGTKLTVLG', 130000),
  ('hzsp34.105 (antibody, human IgG1, lambda, L234A L235A, V domains shown, CDR mutant of hzsp34.24; IgG1 L234A L235A, lambda) VH: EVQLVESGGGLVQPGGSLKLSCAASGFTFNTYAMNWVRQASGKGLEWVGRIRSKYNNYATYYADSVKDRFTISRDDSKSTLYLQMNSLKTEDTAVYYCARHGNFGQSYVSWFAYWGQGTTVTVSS VL: QAVVTQEPSLTVSPGGTVTLTCRSSTGAVTTRNYANWVQQKPGQAPRGLIGGTNKRAPGVPARFSGSLLGDKAALTLLGAQPEDEAEYYCALWYSNLWVFGQGTKLTVLG', 199000);

Now turn to the next binder.
Query: Data request, read-out kon, for hzsp34.107 (antibody, human IgG1, lambda, L234A L235A, V domains shown, CDR mutant of hzsp34.24; IgG1 L234A L235A, lambda) VH: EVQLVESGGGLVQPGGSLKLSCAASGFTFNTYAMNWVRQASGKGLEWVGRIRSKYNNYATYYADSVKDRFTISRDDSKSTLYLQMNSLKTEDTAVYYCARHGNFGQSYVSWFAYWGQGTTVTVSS VL: QAVVTQEPSLTVSPGGTVTLTCRSSTGAVTTSNYANWVQQKPGQAPRGLIGGTNKRAPGVPARFSGSLLGDKAALTLLGAQPEDEAEYYCALAYSNLWVFGQGTKLTVLG
Response: 74600

Cited source for all entries: patent US20230374132A1
